molecular target: UniProtKB O43570
Sequence (O43570 whole entry): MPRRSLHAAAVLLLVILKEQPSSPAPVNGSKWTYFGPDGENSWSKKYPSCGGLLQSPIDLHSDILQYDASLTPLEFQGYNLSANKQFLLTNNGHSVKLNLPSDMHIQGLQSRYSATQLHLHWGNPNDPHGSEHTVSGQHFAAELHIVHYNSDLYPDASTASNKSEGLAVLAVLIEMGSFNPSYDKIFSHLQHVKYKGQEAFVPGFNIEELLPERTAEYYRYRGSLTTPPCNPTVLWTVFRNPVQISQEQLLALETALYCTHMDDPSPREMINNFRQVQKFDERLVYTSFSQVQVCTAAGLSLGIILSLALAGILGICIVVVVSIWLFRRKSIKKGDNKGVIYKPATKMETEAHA
pKi: −log10 of the molar value.
# pKi listing for each entry below

{"columns": ["molecule", "pKi"],
 "data": [
  ["CC(=O)OC[C@H]1O[C@@H]([Se]c2ccc(S(N)(=O)=O)cc2)[C@H](OC(C)=O)[C@@H](OC(C)=O)[C@@H]1OC(C)=O", 5.02],
  ["NS(=O)(=O)c1ccc([Se][C@@H]2O[C@H](CO)[C@H](O)[C@H](O)[C@H]2O)cc1", 7.08],
  ["NS(=O)(=O)c1ccc(NC(=S)Nc2ccc([Se][C@@H]3O[C@H](CO)C(O)[C@H](O)[C@H]3O)cc2)cc1 (single isomer, unassigned; 16a)", 7.70]
]}

---

molecular target: Carbonic anhydrase 5B, mitochondrial (Homo sapiens, UniProt Q9Y2D0)
Sequence (Q9Y2D0 whole entry): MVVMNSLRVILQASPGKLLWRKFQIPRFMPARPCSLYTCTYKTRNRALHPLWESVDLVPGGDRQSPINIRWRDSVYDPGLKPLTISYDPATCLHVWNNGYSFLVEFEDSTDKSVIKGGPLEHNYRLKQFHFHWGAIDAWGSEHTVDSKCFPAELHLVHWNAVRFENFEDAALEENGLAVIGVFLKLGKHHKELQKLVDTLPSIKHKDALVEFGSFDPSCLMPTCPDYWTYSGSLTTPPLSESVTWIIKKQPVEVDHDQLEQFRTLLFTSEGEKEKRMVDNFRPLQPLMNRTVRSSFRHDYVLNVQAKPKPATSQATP
pKi: −log10 of the molar value.
Give Satisfied when the value for pKi is at least 8. Give Not satisfied when it is less.

{"columns": ["smiles_entry", "category"],
 "data": [
  ["CC(=O)O[C@@H]1[C@@H](OC(C)=O)[C@H]([Se]c2ccc(S(N)(=O)=O)cc2)O[C@H](CO)[C@H]1OC(C)=O", "Satisfied"],
  ["Nc1cc([Se][C@@H]2O[C@H](CO)[C@@H](O)[C@H](O)[C@H]2O)ccc1S(N)(=O)=O", "Not satisfied"],
  ["NS(=O)(=O)c1cc(C(=O)Nc2ccc([Se][C@@H]3O[C@H](CO)[C@H](O)[C@H](O)[C@H]3O)cc2)ccc1Cl", "Not satisfied"],
  ["CC(=O)OC[C@H]1O[C@@H]([Se]c2ccc(NC(=S)Nc3ccc(S(N)(=O)=O)cc3)cc2)[C@H](OC(C)=O)[C@@H](OC(C)=O)[C@H]1OC(C)=O", "Satisfied"],
  ["CC(=O)OC[C@H]1O[C@@H]([Se]c2ccc(S(N)(=O)=O)cc2)[C@H](OC(C)=O)[C@@H](OC(C)=O)[C@@H]1OC(C)=O", "Not satisfied"],
  ["CC(=O)O[C@H]1[C@@H](OC(C)=O)[C@@H](CO)O[C@@H]([Se]c2ccc(S(N)(=O)=O)cc2)[C@@H]1OC(C)=O", "Satisfied"]
]}

---

molecular target: Carbonic anhydrase 5B, mitochondrial (Homo sapiens, UniProt Q9Y2D0)
# Ki listing for each entry below

{"columns": ["smiles_entry", "test_target", "units_label", "Ki"],
 "data": [
  ["NS(=O)(=O)c1ccc(S(=O)(=O)[C@@H]2O[C@H](CO)[C@@H](O)[C@H](O)[C@H]2O)cc1", "Carbonic anhydrase 5B, mitochondrial (Homo sapiens, UniProt Q9Y2D0)", "nM", 4.2],
  ["NS(=O)(=O)c1ccc([Se][C@@H]2O[C@H](CO)[C@@H](O)[C@H](O)[C@H]2O)cc1", "Carbonic anhydrase 5B, mitochondrial (Homo sapiens, UniProt Q9Y2D0)", "nM", 87.3],
  ["NS(=O)(=O)c1ccc([Se][C@@H]2O[C@H](CO)[C@H](O)[C@H](O)[C@H]2O)cc1", "Carbonic anhydrase 5B, mitochondrial (Homo sapiens, UniProt Q9Y2D0)", "nM", 8.7],
  ["NS(=O)(=O)c1ccc(C(=O)Nc2ccc([Se][C@@H]3O[C@H](CO)[C@@H](O)[C@H](O)[C@H]3O)cc2)cc1", "Carbonic anhydrase 5B, mitochondrial (Homo sapiens, UniProt Q9Y2D0)", "nM", 3]
]}
